tested_on: Rabies virus glycoprotein G, Challenge Virus Standard (CVS)-11 strain (Rabies virus, strain CVS-11 (genotype 1 Lyssavirus)) (UniProt O92284)
Sequence (O92284 20-524 limits assumed): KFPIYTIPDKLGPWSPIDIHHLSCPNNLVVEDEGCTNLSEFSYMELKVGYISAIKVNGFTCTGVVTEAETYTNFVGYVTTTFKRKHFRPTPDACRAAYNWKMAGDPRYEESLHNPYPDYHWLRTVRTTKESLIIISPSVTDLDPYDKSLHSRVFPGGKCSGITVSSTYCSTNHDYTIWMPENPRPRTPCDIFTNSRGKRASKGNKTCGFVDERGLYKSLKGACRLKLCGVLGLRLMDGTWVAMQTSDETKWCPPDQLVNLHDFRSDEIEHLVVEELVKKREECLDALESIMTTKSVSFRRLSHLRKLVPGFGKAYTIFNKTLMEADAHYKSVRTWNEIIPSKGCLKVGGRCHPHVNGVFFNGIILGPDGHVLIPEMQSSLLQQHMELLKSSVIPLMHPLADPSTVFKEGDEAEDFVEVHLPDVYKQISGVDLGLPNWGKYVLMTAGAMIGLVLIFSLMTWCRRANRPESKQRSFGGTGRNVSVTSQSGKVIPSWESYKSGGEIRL
assay_explanation: cell-based or functional assay
Attribute: CVS-11 neutralizing antibody titer (RFFIT), nM IC50
value_kind: CVS-11 neutralizing antibody titer (RFFIT), nM IC50 (nM)

• LG212F6 (VHH) VHH: EVQLVESGGGLVQPGGSLRLSCAASGFTFGSYDMSWVRQAPGKGSEWVSHINTGGGSTTYADSVKGRFTISRDNAKNTLYLQMSSLKPEDTAVYYCATGLYGGSTDDYWGQGTQVTVSS = 17.7
• LG213H7 (VHH) VHH: EVQLVESGGGLVQAGGSLRLSCAASGRTLSSYRMGWFRQAPGKEREFISTISWNGRSTYYADSVKGRFIFSEDNAKNTVYLQMNSLKPEDTAVYYCAAALIGGYYSDVDAWSYWGPGTQVTVSS = 191
• LG213D7 (VHH) VHH: EVQLVESGGGLVQAGGSLRLSCTVSGDTFDNSAAGWYRATSETQRELVARIRSSGSTNYADSVKGRFTVSRDNAKNTVYLQMNSLKPEDTAVYYCNVVSYGEYFWGKGTLVTVSS = 305
